Reported Cmax values for the following compounds.
PROTOCOL_DETAILS: Pharmacokinetic evaluation in C57BL/6 mice after intravenous and oral administration
Type: in vivo
TEST_CONTEXT: male, mouse, plasma, IV 1 mg/kg, oral 2 mg/kg, route of Cmax not stated, read-out: max concentration Cmax
MEASURED_PARAMETER: Cmax (ng/mL)

In [3]: df
Out[3]:
                                   compound  measured_parameter  units_text  test_value
0  O=C(O)C1(CN2CCC(c3nc(C4(CN[C@@H]5C[C@H]5c5ccccc5)CC4)no3)CC2)CCC1 [Example 235]                Cmax       ng/mL         497
1  N[C@H]1CC[C@@H](c2nc(C3(CN[C@@H]4C[C@H]4c4ccccc4)CC3)no2)CC1 [Example 145]                Cmax       ng/mL        11.9
2  N[C@H]1CC[C@H](c2noc(C3(CN[C@@H]4C[C@H]4c4ccccc4)CC3)n2)CC1 [Example 242]                Cmax       ng/mL         179
3  FC(F)(F)c1ccc(-c2nc(C3(CN[C@H]4CC4c4ccccc4)CC3)no2)cn1 (stereo partly shown) [Example 66]                Cmax       ng/mL        2140

Values from patent US11433053B2
